measurement-target: Nicotinamide N-methyltransferase (Homo sapiens)
protocol-details: Confirmatory Screen for Target Class Profiling of Small Molecule Inhibitors of Methyltransferases (AID 1745852)
test-settings: MTase-Glo luminescence, SAH detection, recombinant enzyme; measured here: NNMT max response; stronger effect = lower value
result-type: activity (%)
Your answer is read as %, so omit the unit and give the number.

INSERT INTO assay_data (compound, result_type, assay_result) VALUES
  ('CC1(C)O[C@@]2(C)CC[C@@H]1C[C@@H]2OC1OC(CO)C(O)C(O)C1O (some centres not stated)', 'activity', 4.92);

Here is another compound to look at.
INPUT: Identify measured activity corresponding to COc1cc(C2Oc3c(OC)cc(CCCO[C@@H]4O[C@H](CO)[C@@H](O)[C@H](O)[C@H]4O)cc3C2CO)ccc1O (some centres not stated)
OUTPUT: 0

----------
Tested on: Zika virus NS2B-NS3 protease (linked construct)
protocol-details: Primary screen NINDS Rhodamine qHTS for Zika virus inhibitors (AID 1347160); also: nearly all actives have a fitted effect of over 55% in size
test-settings: purified NS2B-NS3 protease, Rhodamine110 substrate fluorescence; series mostly up to 57.1 µM
Results filed as inconclusive are left out. Active and inactive are the calls of the source. The call rests on the fitted dose curve; in most records, active means well fitted inhibition curve with a large enough effect; inconclusive means small, poorly fitted or top-dose-only effect; inactive means no such curve, though single readings can be large or run the other way.
Reply using exactly one outcome from active, inactive

As a guide, the following entries are already answered.
INSERT INTO results (compound, cat) VALUES
  ('Oc1ccc([C@H]2COc3cc(O)ccc3C2)cc1', 'inactive'),
  ('CC(C)C(=O)c1cn(CC(=O)COc2ccc(Oc3ccccc3)cc2)c2ccc(C(=O)O)cc12', 'active'),
  ('O=c1ccn([C@@H]2O[C@H](CO)[C@@H](O)[C@H]2O)c(=O)[nH]1', 'inactive'),
  ('C[C@@H]1CC[C@]2(C(=O)O[C@@H]3O[C@H](CO)[C@@H](O)[C@H](O)[C@H]3O)CC[C@]3(C)C(=CCC4[C@@]5(C)C[C@@H](O)[C@H](O)C(C)(C)C5CC[C@]43C)C2[C@]1(C)O (stereo partly specified)', 'inactive'),
  ('O=C1NCc2nc3ccccc3c(=O)n2C1Cc1c[nH]c2ccccc12 (stereo unspecified)', 'inactive');

INPUT: Answer briefly: the call reported for CC12CCC3C(C)(C)C(O)CCC3(C)C1Cc1c(oc(C(=O)O)cc1=O)O2 (stereo unspecified) in this assay.
OUTPUT: inactive

INPUT: Answer briefly: the call reported for "CCOC(=O)c1c(C)nn(-c2cccc([N+](=O)[O-])c2)c1C" in this assay.
OUTPUT: inactive

INPUT: Answer briefly: the call reported for COc1cc(C(O)C(CO)Oc2ccc(CCCO[C@@H]3O[C@@H](C)[C@H](O)[C@@H](O)[C@H]3O)cc2OC)ccc1O (stereo partly specified) in this assay.
OUTPUT: inactive

INPUT: Answer briefly: the call reported for "CC1=C2C(=O)O[C@@H](c3ccoc3)[C@]2(C)CCC1" in this assay.
OUTPUT: inactive

INPUT: Answer briefly: the call reported for "C=CCc1ccc(O[C@@H]2O[C@H](CO[C@@H]3O[C@H](CO)[C@@H](O)[C@H](O)[C@H]3O)[C@@H](O)[C@H](O)[C@H]2O)c(O)c1" in this assay.
OUTPUT: inactive

INPUT: Answer briefly: the call reported for "C=C1[C@@H]2CC[C@@]3(C)[C@H](c4ccoc4)OC(=O)C[C@]13O[C@H]1CC(=O)C(C)(C)[C@H](CC(=O)OC)[C@]12C" in this assay.
OUTPUT: inactive

INPUT: Answer briefly: the call reported for "O=C(Nc1cccnn1)N1CCC(=Cc2cccc(Oc3ccc(C(F)(F)F)cn3)c2)CC1" in this assay.
OUTPUT: inactive

INPUT: Answer briefly: the call reported for COC(=O)[C@@H]1C2CC3c4[nH]c5ccccc5c4CCN3CC2CC[C@@H]1O (stereo partly specified) in this assay.
OUTPUT: inactive

INPUT: Answer briefly: the call reported for CC(=O)N[C@H]1[C@H](O[C@H]2CC[C@@]3(C)C(CC[C@]4(C)C3CC=C3C5CC(C)(C)CC[C@]5(C(=O)O)[C@H](O[C@@H]5O[C@H](CO)[C@@H](O)[C@H](O)[C@H]5O)C[C@]34C)C2(C)C)O[C@H](CO[C@@H]2OC[C@H](O)[C@H](O)[C@H]2O[C@@H]2OC[C@@H](O)[C@H](O)[C@H]2O)[C@@H](O)[C@@H]1O (stereo partly specified) in this assay.
OUTPUT: inactive

INPUT: Answer briefly: the call reported for "C=C[C@H]1[C@H](O[C@@H]2O[C@H](CO)[C@@H](O)[C@H](O)[C@H]2O)OC=C(C(=O)OC)[C@H]1C[C@@H]1N[C@H](C(=O)O)Cc2c1[nH]c1ccccc21" in this assay.
OUTPUT: inactive

INPUT: Answer briefly: the call reported for "CC1(C)OC(=O)C(OCC2CC2)=C1c1ccc(S(C)(=O)=O)cc1" in this assay.
OUTPUT: inactive

----------
System: NIH3T3
protocol-details: Cytotoxic Profiling of Annotated Libraries Using Quantitative High-Throughput Screening (AID 1296008); also: % is scaled to controls: 0 for no effect and ±100 for the full control effect; nearly all actives have a fitted effect of over 60% in size
test-settings: Five cell lines viability, CellTiter-Glo ATP luminescence, 48-72 h; stronger effect = lower value
Method: Cell-based phenotypic screening is a commonly used approach to discover biological pathways, novel drug targets, chemical probes and high-quality hit-to-lead molecules. […] A pintool (Kalypsys) was used to transfer 23 nL of compound solution to the 1536-well assay plates. […] Plates were left at room temperature for 10 min before imaging the ATP-coupled luminescence using a ViewLux microplate imager (PerkinElmer, Waltham, MA).
Results filed as inconclusive are left out. Where a SMILES comes first, the peptide text is derived from it. [ ]: non-standard residue; d: D form. PhLac = O=C(O)[CH](O)Cc1ccccc1; NMeV = CN[CH](C(=O)O)C(C)C
result-type: max response (%)
Your answer is read as %, so omit the unit and give the number.

INSERT INTO measurements (compound, result_type, units_label, assay_result) VALUES
  ('CC(C)C(C(=O)N1CCCC1C(=O)O)N(C)C(=O)C(O)Cc1ccccc1 (stereo unspecified) (H-[PhLac]-[NMeV]-Pro-OH; configuration not given here)', 'max response', '%', -4.85),
  ('CC(=O)N1c2ccccc2C2(O)CC3C(=O)NC(CC(C)C)C(=O)N3C12 (stereo unspecified)', 'max response', '%', 1.77),
  ('CNC(=O)COC(=O)NCCC1CCN(c2cccc(C)n2)CC1', 'max response', '%', -5.35);

INPUT: Identify measured max response corresponding to COc1c(C(CC(C)C)OC(C)=O)ccc(Oc2c(O)cc(C)cc2/C=C/C(C)=O)c1C(=O)O (stereo unspecified)
OUTPUT: -18.3

INPUT: Identify measured max response corresponding to "C[C@@H]1O[C@@H](OC[C@H]2O[C@@H](OCCc3ccccc3)[C@H](O)[C@@H](O)[C@@H]2O)[C@H](O)[C@H](O)[C@H]1O"
OUTPUT: 4.11

INPUT: Identify measured max response corresponding to "CC(C)C(=O)c1cn(CC(=O)COc2ccc(Oc3ccccc3)cc2)c2ccc(C(=O)O)cc12"
OUTPUT: -1.24

----------
Let's look at some compounds and their measured activity change, negative = inhibition.
measurement-target: Guanidinoacetate N-methyltransferase (Homo sapiens)
protocol-details: Confirmatory Screen for Target Class Profiling of Small Molecule Inhibitors of Methyltransferases (AID 1745852); as to activity change, negative = inhibition: % is scaled to controls: 0 for no effect and ±100 for the full control effect
test-settings: MTase-Glo luminescence, SAH detection, recombinant enzyme; at 57.3 µM (top of the series) unless noted
Your answer is read as % [at 19.1 µM], so omit the unit and give the number.

Below are worked cases with known answers.
INSERT INTO measurements (compound, result_type, assay_result) VALUES
  ('C=C1[C@H]2[C@H](O[C@@H]3O[C@H](COC(=O)/C=C/c4cc(OC)c(O)c(OC)c4)[C@@H](O)[C@H](O)[C@H]3O)OC=C(C(=O)O)[C@H]2C[C@@H]1O', 'activity change, negative = inhibition', 0),
  ('CC1(C)CC[C@]2(C(=O)O[C@@H]3O[C@H](CO)[C@@H](O)[C@H](O)[C@H]3O)CC[C@]3(C)C(=CCC4[C@@]5(C)C[C@@H](O)[C@H](O)C(CO)(CO)C5CC[C@]43C)C2[C@@H]1O (stereo not given in full)', 'activity change, negative = inhibition', 0),
  ('COc1cc(/C=C/C(=O)O[C@H]2[C@H](OC(=O)/C=C/c3cc(OC)c(O)c(OC)c3)O[C@H](CO[C@@H]3O[C@H](CO)[C@@H](O)[C@H](O)[C@H]3O)[C@@H](O)[C@@H]2O)ccc1O', 'activity change, negative = inhibition', 0.645);

Here is another compound to look at.
INPUT: Identify measured activity change, negative = inhibition corresponding to COc1cc(C2Oc3c(OC)cc(/C=C/C(=O)OC[C@H]4O[C@@H](OC(C)(C)C(=O)O)[C@H](O)[C@@H](O)[C@@H]4O)cc3C2CO)ccc1O (stereo not given in full)
OUTPUT: -2.88
